# METHOD: yeast display, Sf9 membrane polyspecificity reagent, FACS + sequencing; frameworks hold sequencing errors
VALUE KIND: polyreactivity (PSR sort gate)

Example results:
{"SEQUENCE DATA": "PVQLVESGGGLVQAGGILRLSCAACGRIFQRNAMGWYRQAPGKERELVATITSRGGSTYYADSVKGRFTISRDNAKNTVYLQMNSLKPEDTAVYYCAADPRRYRGFGYVYGGFYYWGQGTQVTVSS", "polyreactivity (PSR sort gate)": "low polyreactivity"}
{"SEQUENCE DATA": "QVQLVESGGGLVKAGGSLRLSCAASGSIFGRYAMGWYRQAPGKERELVAAISSGGRTYADSVKGRFTISRDNAKNTVYLQMNSLNPEDTAVYYCNARYDGRNSVGPYLGYNYWGQGTQVTVSS", "polyreactivity (PSR sort gate)": "high polyreactivity"}
{"SEQUENCE DATA": "QVQLVESGGGLVQAGGSLRLSCAASGSTFDYNAMVWYRQAPGKESDLVVAITWGGDSTYADSVKGRFTISRDNAKNTVYLQMNSLKPEDTAVYYCAAEQDPWTSRYVFFASRYDYWGQGTQVTVSS", "polyreactivity (PSR sort gate)": "low polyreactivity"}
{"SEQUENCE DATA": "QVQLVESGGGLVQAGCSLLLICADSGFIFYGYVMGWYRQAPGKEMEWVAGITSSGTSTYADSVKGRFTISRDNAKNTVFLQMNSLKPEDTAAYYCAALRRQYGARDYDYWGQGTQVTVSA", "polyreactivity (PSR sort gate)": "low polyreactivity"}

As a next step, examine the sequence that follows.
[ask] Which polyreactivity (PSR sort gate) reading was recorded for the sequence `QVQLVESGGGLVQAGGSLRLSCAASGSIFPYAMGWYRQSPGKQRQLVAVISWSGASTYYADSVKGRFTISRDNAKNTVDLQMNSLKPEDTAVYYCAVYRYYKLVHLYGYDYWGQGTQVTVSS` ?
[reply] high polyreactivity
